assay_info: Pharmacokinetics in rats
Assay type: in vivo, SD rats
condition_details: male, SD, plasma; rat, iv (tail vein injection), 1 mg/kg
property: clearance
Hi, when you answer, please include the unit after the number. Thanks!

Examples with answers:
| smiles_text | clearance |
| --- | --- |
| Cc1cc([C@@H](C)Nc2ccc(Cl)nc2C(=O)O)c2nc(-c3ccc(F)cc3)n(C)c(=O)c2c1 | 16.3 mL/min/kg |
| Cc1cc([C@@H](C)Nc2ccc(Cl)nc2C(=O)O)c2nc(-c3ccc(F)cn3)n(C)c(=O)c2c1 | 10.9 mL/min/kg |

For every item below, please supply its clearance.
1. C[C@@H](Nc1ccc(Cl)nc1C(=O)O)c1cc(F)cc2c(=O)n(C)c(-c3ccc(F)cn3)nc12
2. Cc1cc([C@@H](C)Nc2ccc(Cl)nc2C(=O)O)c2nc(-c3ccccc3)n(C)c(=O)c2c1

Result:
1. 16.6 mL/min/kg
2. 17.5 mL/min/kg

---

assay_info: Pharmacokinetics in beagle dogs
Type: in vivo
condition_details: male, plasma; beagle dog, iv, 1 mg/kg
property: clearance (L/h/kg)
Answers are plain numbers, in L/h/kg.

| smiles_text | clearance (L/h/kg) |
| --- | --- |
| C[C@@H](Nc1ccc(Cl)nc1C(=O)O)c1cc(F)cc2c(=O)n(C)c(-c3ccc(F)cn3)nc12 | 0.414 |
| Cc1cc([C@@H](C)Nc2ccc(Cl)nc2C(=O)O)c2nc(-c3ccc(F)cc3)n(C)c(=O)c2c1 | 1.04 |

Let us examine a further case.
Q: Value lookup for clearance; key = Cc1cc([C@@H](C)Nc2ccc(Cl)nc2C(=O)O)c2nc(-c3ccc(F)cn3)n(C)c(=O)c2c1
Result: 0.466

---

Give measured Vd for each item. Keep answers brief.
assay_info: Pharmacokinetics in rats
Assay type: in vivo, SD rats
condition_details: male, SD, plasma; rat, iv (tail vein injection), 1 mg/kg; read-out: VSS
Give bare numbers, in L/kg.

| smiles_text | value_observed |
| --- | --- |
| Cc1cc([C@@H](C)Nc2ccc(Cl)nc2C(=O)O)c2nc(-c3ccccc3)n(C)c(=O)c2c1 | 2.14 |

Report Vd for each item below.
1. C[C@@H](Nc1ccc(Cl)nc1C(=O)O)c1cc(F)cc2c(=O)n(C)c(-c3ccc(F)cn3)nc12
2. Cc1cc([C@@H](C)Nc2ccc(Cl)nc2C(=O)O)c2nc(-c3ccc(F)cc3)n(C)c(=O)c2c1
3. Cc1cc([C@@H](C)Nc2ccc(Cl)nc2C(=O)O)c2nc(-c3ccc(F)cn3)n(C)c(=O)c2c1

Result:
1: 1.33; 2: 1.71; 3: 2.2

---

assay_info: Pharmacokinetics in beagle dogs
Format: in vivo
condition_details: male, plasma; beagle dog, iv, 1 mg/kg; read-out: VSS
Field: Vd. Provide a value for each of the compounds that follow.
Give bare numbers, in L/kg.

| compound | property | value_observed |
| --- | --- | --- |
| C[C@@H](Nc1ccc(Cl)nc1C(=O)O)c1cc(F)cc2c(=O)n(C)c(-c3ccc(F)cn3)nc12 [Compound 74] | Vd | 0.663 |
| Cc1cc([C@@H](C)Nc2ccc(Cl)nc2C(=O)O)c2nc(-c3ccc(F)cc3)n(C)c(=O)c2c1 [Compound 65] | Vd | 0.828 |

Now examine the next entry.
Q: Given Cc1cc([C@@H](C)Nc2ccc(Cl)nc2C(=O)O)c2nc(-c3ccc(F)cn3)n(C)c(=O)c2c1 [Compound 66] , state its recorded Vd.
Result: 0.879
